Values were extracted from PubChem BioAssay (Tox21).

- method notes: qHTS assay to identify small molecule agonists of the androgen receptor (AR) signaling pathway in the presence of an antagonist - cell viability counter screen (AID 1259379); also: nearly all actives have a fitted effect of over 25% in size
- protocol conditions: MDA-kb2 viability, CellTiter-Fluor, 16 h; series mostly up to 92.4 µM
Results filed as inconclusive are left out. Active and inactive are the calls of the source. Calls follow the shape of the dose curve; as a rule, active = well fitted cell-killing curve with a large enough effect in the repeat runs; inconclusive = weak or mixed curves, or effect the other way; inactive = flat fitted curve, though single readings scatter.
Respond only with the outcome that fits, drawn from active, inactive

{"columns": ["compound", "class name"],
 "data": [
  ["CCCCN1CCCC[C@H]1C(=O)Nc1c(C)cccc1C", "inactive"],
  ["CCN(C(=O)c1cc(C)cc(OC[C@H](C)Nc2ccncc2)c1)C(C)C", "inactive"],
  ["CO[Si](CCCNc1ccccc1)(OC)OC", "inactive"],
  ["Clc1ccc(C(Cn2ccnc2)OCc2ccc(Sc3ccccc3)cc2)c(Cl)c1 (stereo unspecified)", "inactive"],
  ["CCCC(=O)OC[C@@H](OC(=O)CCC)[C@@H](OC(=O)CCC)[C@H](Cn1c2nc(=O)[nH]c(=O)c-2nc2cc(C)c(C)cc21)OC(=O)CCC", "inactive"]
]}

# lookup: test call for CCCCCCCC/C=C\CCCCCCCCOCCO
active

Just curious, what result did CCCCCCCCCCCC[N+](C)(C)CCCCCCCCCCCC get here?
active

Hi team, can someone confirm the assay call for CCCCCCCCCCCCCCCS(=O)(=O)Oc1ccccc1 ?
inactive

Tell me the recorded outcome of this test for CNC(=O)c1ccccc1 .
inactive

Given C[n+]1cc2c3c(ccc2c2ccc4cc5c(cc4c21)OCO5)OCO3 , state the outcome it received in this test.
active

For COC(=O)c1cc(Cl)ccc1OC , which call appears in the assay record?
inactive
